# reported log10(Ki); entries follow
# Assay target: delta opioid receptor (Rattus norvegicus, UniProt P33533)
# Construct: from tissue; host or cells: forebrain of male Wistar rats
# Sequence (P33533 whole entry): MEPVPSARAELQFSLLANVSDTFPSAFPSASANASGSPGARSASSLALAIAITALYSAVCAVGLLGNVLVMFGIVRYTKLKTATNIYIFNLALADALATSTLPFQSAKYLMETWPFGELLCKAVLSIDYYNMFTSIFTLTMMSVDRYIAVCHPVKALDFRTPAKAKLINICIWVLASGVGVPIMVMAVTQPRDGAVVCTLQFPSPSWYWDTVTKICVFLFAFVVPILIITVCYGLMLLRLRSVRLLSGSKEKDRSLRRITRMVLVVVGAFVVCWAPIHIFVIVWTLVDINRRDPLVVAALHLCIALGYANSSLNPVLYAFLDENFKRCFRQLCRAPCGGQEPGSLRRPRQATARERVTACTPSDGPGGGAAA
# Assay name: Rat Brain Delta Opioid Receptor Binding Assay ([3H]DPDPE)
# Test parameters: rat forebrain membranes, margin of error 10-20%, read-out: r Ki δ
For clarity, the numbers are log10 values of Ki expressed in nM.

Here is how some compounds turned out for log10(Ki).
CCN(C(=O)[C@@H](N)Cc1c(C)cc(O)cc1C)[C@H](c1nc(-c2ccccc2)c[nH]1)C(C)C
1.51
CCNC(=O)c1cc(C)c(C[C@H](N)C(=O)N(C)[C@@H](C)c2nc(-c3ccccc3)c[nH]2)c(C)c1
2.53
C[C@@H](NC(=O)[C@@H](N)Cc1ccc(O)cc1)c1nc(-c2ccccc2)c[nH]1
3.11
Cc1cc(O)cc(C)c1C[C@H](N)C(=O)N(Cc1ccc(C(F)(F)F)cc1)[C@@H](C)c1nc(-c2ccccc2)c[nH]1
-0.74
COc1ccc(CN(C(=O)[C@@H](N)Cc2c(C)cccc2C)[C@@H](C)c2nc(-c3ccccc3)c[nH]2)cc1C(=O)O
2.00
COc1ccc(CN(C(=O)[C@@H](N)Cc2c(C)cc(C(N)=O)cc2C)[C@@H](C)c2nc(-c3ccc(Br)cc3)c[nH]2)cc1C(=O)O
-0.92

Request: # return recorded log10(Ki) for entry Cc1cc(C(N)=O)cc(C)c1C[C@H](N)C(=O)N(Cc1nc(-c2ccccc2)c[nH]1)C(C)C
Result: 2.02

Request: Identify the reported log10(Ki) for the following entry. COc1ccc(CN(C(=O)[C@@H](N)Cc2ccc(O)cc2)[C@@H](C)c2nc(-c3ccc(Cl)cc3)c(C)[nH]2)cc1C(=O)O
Result: 3.50

Request: Identify measured log10(Ki) corresponding to Cc1ccccc1-c1nc(CN(C(=O)[C@@H](N)Cc2c(C)cc(O)cc2C)C(C)C)[nH]c1C
Result: 1.37

Request: Give log10(Ki) for Cc1cc(O)cc(C)c1C[C@H](N)C(=O)N(Cc1ccccc1)[C@H](C)c1nc(-c2ccccc2)c[nH]1
Result: 3.84

Request: Please give measured log10(Ki) of the following entry: C[C@H](c1nc(-c2ccccc2)c[nH]1)N(Cc1ccccc1)C(=O)[C@@H](N)Cc1ccc(O)cc1
Result: 0.98

Request: Query log10(Ki) for COc1cc(CN(C(=O)[C@@H](N)Cc2c(C)cc(C(N)=O)cc2C)[C@@H](C)c2nc(-c3ccccc3)c[nH]2)c(C(=O)O)cc1OC
Result: 1.00

Request: Determine its reported log10(Ki): CC(C)[C@H](NC(=O)[C@@H](N)Cc1ccc(O)cc1)c1nc(-c2ccccc2)c[nH]1
Result: 2.73

Request: Look up and report measured log10(Ki) for this entry: Cc1cc(O)cc(C)c1C[C@H](N)C(=O)N(Cc1ccc(OC(C)C)cc1)[C@@H](C)c1nc(-c2ccccc2)c[nH]1
Result: -0.68
